The following compounds are shown together with reported p21/klf2 (RP3): relative selectivity compared with SNDX-275 values.
- Tested on: klf2 promoter-luciferase construct in A204 cells
- procedureSummary: klf2 reporter gene induction (p21 versus klf2 selectivity)
- Format: cell-based
- condition: 3 micromolar; SNDX-275 p21/klf2 ratio defined as 1.0
Answer using only a numeral; do not append any unit.

Nc1ccccc1NC(=O)/C=C/c1ccc(C(NCCN2CCOCC2)C(=O)Nc2ccc(C(F)(F)F)cn2)cc1 (stereo not shown): 0.9
CN(C)CCNC(C(=O)Nc1ccc(OC(F)(F)F)cc1)c1ccc(/C=C/C(=O)Nc2ccccc2N)cc1 (stereo not shown): 1.4
Nc1ccccc1NC(=O)/C=C/c1ccc(C(NCCN2CCOCC2)C(=O)Nc2ccc(OC(F)(F)F)cc2)cc1 (stereo not shown): 1.2

Let's switch to this compound now.
Recorded p21/klf2 (RP3): relative selectivity compared with SNDX-275 (compound Nc1ccccc1NC(=O)/C=C/c1ccc(C(C(=O)Nc2ccc(C(F)(F)F)cc2)N2CCCC2)cc1 (stereo not shown) ): 1.1

###

- Tested on: klf2 promoter-luciferase construct in A204 cells
- procedureSummary: klf2 reporter gene induction (p21 versus klf2 selectivity)
- Format: cell-based
- condition: 3 micromolar; SNDX-275 p21/klf2 ratio defined as 1.0
- Experimental: The novel compounds of the present invention were tested for their ability to induce p21 gene expression using a reporter gene assay involving HeLa cells transfected with a p21 promoter-luciferase construct. The p21 promoter contained the Sp1/Sp3 binding site for HDAC but not the upstream p53 binding site. Briefly, the day before transfection, HeLa cells were seeded at 11,000 cells/well in a 96-well culture plate and incubated at 37 degrees Celsius in 5% CO2 overnight. […]
attributeMeasured: p21/klf2 (RP3): relative selectivity compared with SNDX-275
# print the numeric value only

Examples with answers:
CN(C)CCNC(C(=O)Nc1ccc(Br)cc1)c1ccc(/C=C/C(=O)Nc2ccccc2N)cc1 (stereo not shown): 1.6
Nc1ccccc1NC(=O)/C=C/c1ccc(C(NCCN2CCCCC2)C(=O)Nc2ccc(C(F)(F)F)cc2)cc1 (stereo not shown): 2.2
CC(C)(C)c1ccc(NC(=O)C(NCCO)c2ccc(/C=C/C(=O)Nc3ccccc3N)cc2)cc1 (stereo not shown): 0.5

# context switch: different molecule, same p21/klf2 (RP3): relative selectivity compared with SNDX-275
Per the record, C[C@@H]1CN(CCNC(C(=O)Nc2ccc(C(F)(F)F)cc2)c2ccc(/C=C/C(=O)Nc3ccccc3N)cc2)C[C@H](C)O1 (stereo partly shown) has p21/klf2 (RP3): relative selectivity compared with SNDX-275 of 0.5

###

- Test system: klf2 promoter-luciferase construct in A204 cells
- procedureSummary: klf2 reporter gene induction (p21 versus klf2 selectivity)
- Assay type: cell-based
- condition: 3 micromolar; SNDX-275 p21/klf2 ratio defined as 1.0
attributeMeasured: p21/klf2 (RP3): relative selectivity compared with SNDX-275
Simply state the number, no unit and no words.

Cc1ccc(NC(=O)C(NCCN2CCOCC2)c2ccc(/C=C/C(=O)Nc3ccccc3N)cc2)cc1 (stereo not shown): 2.0
CC(C)c1ccc(NC(=O)C(NCCN2CCOCC2)c2ccc(/C=C/C(=O)Nc3ccccc3N)cc2)cc1 (stereo not shown): 1.1
Nc1ccccc1NC(=O)/C=C/c1ccc(C(NCCC2CCOCC2)C(=O)Nc2ccc(C(F)(F)F)cc2)cc1 (stereo not shown): 1.0

The record that follows has no p21/klf2 (RP3): relative selectivity compared with SNDX-275 shown yet.
p21/klf2 (RP3): relative selectivity compared with SNDX-275 reading for Nc1ccccc1NC(=O)/C=C/c1ccc(C(C(=O)Nc2ccc(C(F)(F)F)cc2)N2CCOCC2)cc1 (stereo not shown) : 1.0

###

- Tested on: klf2 promoter-luciferase construct in A204 cells
- procedureSummary: klf2 reporter gene induction (p21 versus klf2 selectivity)
- Format: cell-based
- condition: 3 micromolar; SNDX-275 p21/klf2 ratio defined as 1.0
- Experimental: The novel compounds of the present invention were tested for their ability to induce p21 gene expression using a reporter gene assay involving HeLa cells transfected with a p21 promoter-luciferase construct. The p21 promoter contained the Sp1/Sp3 binding site for HDAC but not the upstream p53 binding site. Briefly, the day before transfection, HeLa cells were seeded at 11,000 cells/well in a 96-well culture plate and incubated at 37 degrees Celsius in 5% CO2 overnight. […]
Recorded measurements of p21/klf2 (RP3): relative selectivity compared with SNDX-275, one per entry

Example results:
Nc1ccccc1NC(=O)/C=C/c1ccc(C(NCCN2CCOCC2)C(=O)Nc2ccc(C(F)(F)F)c(F)c2)cc1 (stereo not shown): 0.7
CN(C)CCNC(C(=O)Nc1ccc(C(F)(F)F)cc1F)c1ccc(/C=C/C(=O)Nc2ccccc2N)cc1 (stereo not shown): 1.5
Nc1ccccc1NC(=O)/C=C/c1ccc(C(NCCN2CCOCC2)C(=O)Nc2ccc(Br)cc2)cc1 (stereo not shown): 1.0
Nc1ccccc1NC(=O)/C=C/c1ccc(C(NCCN2C[C@@H]3C[C@H]2CO3)C(=O)Nc2ccc(C(F)(F)F)cc2)cc1 (stereo partly shown): 10.6

Looking up CNC(C(=O)Nc1ccc(C(F)(F)F)cc1)c1ccc(/C=C/C(=O)Nc2ccccc2N)cc1 (stereo not shown) , I found its p21/klf2 (RP3): relative selectivity compared with SNDX-275 recorded as 1.3

get_value(item= Nc1ccccc1NC(=O)/C=C/c1ccc(C(NCCN2CCOCC2)C(=O)Nc2ccc(C3CC3)cc2)cc1 (stereo not shown) , readout=p21/klf2 (RP3): relative selectivity compared with SNDX-275) returns 1.0

###

- Tested on: klf2 promoter-luciferase construct in A204 cells
- procedureSummary: klf2 reporter gene induction (p21 versus klf2 selectivity)
- Type: cell-based
- condition: 3 micromolar; SNDX-275 p21/klf2 ratio defined as 1.0
attributeMeasured: p21/klf2 (RP3): relative selectivity compared with SNDX-275
A bare number is all that is needed in reply.

Nc1ccccc1NC(=O)/C=C/c1ccc(C(NCCN2CCOCC2)C(=O)Nc2ccc(Cl)cc2)cc1 (stereo not shown): 2.1
Nc1ccccc1NC(=O)/C=C/c1ccc(C(NCCO)C(=O)Nc2ccc(C(F)(F)F)cc2)cc1 (stereo not shown): 1.0
Nc1ccccc1NC(=O)/C=C/c1ccc(C(NCCN2CCCCC2)C(=O)Nc2ccc(OC(F)(F)F)cc2)cc1 (stereo not shown): 1.9

Now for a further compound.
The reported value for CN(C)CCNC(C(=O)Nc1ccc(C(F)(F)F)cc1)c1ccc(/C=C/C(=O)Nc2ccccc2N)cc1 (stereo not shown) in terms of p21/klf2 (RP3): relative selectivity compared with SNDX-275 is 1.4
